System: Enterococcus faecalis
Experiment: Antimicrobial activity Enterococcus faecalis ATCC 29212 after 16 to 20 hrs by broth microdilution method
Assay type: functional
Form field: MIC (one value per entry).

# molecule, MIC, µg/mL
records = [
    ("O=C(O)C(F)(F)F.OC1CN=C(c2ccc3cc(-c4ccc(-c5cc6ccc(C7=NCC(O)CN7)cc6[nH]5)cc4)[nH]c3c2)NC1 (configuration not stated)", 0.16),
    ("CC1CN=C(c2ccc3cc(-c4ccc(-c5cc6ccc(C7=NCC(C)CN7)cc6[nH]5)cc4)[nH]c3c2)NC1.O=C(O)C(F)(F)F (configuration not stated)", 0.16),
    ("FC1CN=C(c2ccc3cc(-c4ccc(-c5cc6ccc(C7=NCC(F)CN7)cc6[nH]5)cc4)[nH]c3c2)NC1.O=C(O)C(F)(F)F (configuration not stated)", 0.16),
    ("CCOC(=N)c1ccc2cc(-c3ccc(-c4cc5ccc(C(=N)OCC)cc5[nH]4)cc3)[nH]c2c1.Cl", 2.5),
    ("CC1(C)CN=C(c2ccc3cc(-c4ccc(-c5cc6ccc(C7=NCC(C)(C)CN7)cc6[nH]5)cc4)[nH]c3c2)NC1.O=C(O)C(F)(F)F", 0.31),
    ("CC(=O)O.c1cc2cc(-c3cnc(-c4cc5ccc(C6=NCCCN6)cc5[nH]4)cn3)[nH]c2cc1C1=NCCCN1", 0.31),
    ("O=C(O)C(F)(F)F.c1cc2cc(-c3ccc(-c4cc5ccc(C6=NCCN6)cc5[nH]4)s3)[nH]c2cc1C1=NCCN1", 1.25),
]

* * *

Test system: Acinetobacter baumannii
Assay: Antimicrobial activity against Acinetobacter baumannii ATCC 19606 after 16 to 20 hrs by broth microdilution method
Format: functional
measurementLabel: MIC (µg/mL)

# compound, displayUnit, relationalOperator, resultNumber
rows = [
    ("O=C(O)C(F)(F)F.c1cc2cc(-c3ccc(-c4cc5ccc(C6=NCCN6)cc5[nH]4)cc3)[nH]c2cc1C1=NCCN1", "µg/mL", ">", 80),
    ("CC(=O)O.c1cc2cc(-c3ccc(-c4cc5ccc(C6=NCCCN6)cc5[nH]4)nc3)[nH]c2cc1C1=NCCCN1", "µg/mL", "=", 20),
    ("COC1CN=C(c2ccc3cc(-c4ccc(-c5cc6ccc(C7=NCC(OC)CN7)cc6[nH]5)cc4)[nH]c3c2)NC1.O=C(O)C(F)(F)F (stereo unspecified)", "µg/mL", ">", 80),
    ("CC1CN=C(c2ccc3cc(-c4ccc(-c5cc6ccc(C7=NCC(C)CN7)cc6[nH]5)cc4)[nH]c3c2)NC1.O=C(O)C(F)(F)F (stereo unspecified)", "µg/mL", "=", 40),
    ("CC(=O)O.c1cc2cc(-c3cnc(-c4cc5ccc(C6=NCCN6)cc5[nH]4)cn3)[nH]c2cc1C1=NCCN1", "µg/mL", ">", 80),
    ("CC(=O)O.c1cc2cc(-c3ccc(-c4cc5ccc(C6=NCCCN6)cc5[nH]4)s3)[nH]c2cc1C1=NCCCN1", "µg/mL", "=", 5),
]

* * *

System: Acinetobacter baumannii
Test: Antimicrobial activity against Acinetobacter baumannii ATCC 19606 after 16 to 20 hrs by broth microdilution method
Assay type: functional

# compound, testedOn, relationalOperator, MIC (mg/L)
records = [
    ("Cl.N=C(N)c1ccc2cc(-c3ccc(-c4cc5ccc(C(=N)N)cc5[nH]4)cc3)[nH]c2c1", "Acinetobacter baumannii", "=", 40),
    ("O=C(O)C(F)(F)F.OC1CN=C(c2ccc3cc(-c4ccc(-c5cc6ccc(C7=NCC(O)CN7)cc6[nH]5)cc4)[nH]c3c2)NC1 (stereo not drawn)", "Acinetobacter baumannii", ">", 80),
    ("O=C(O)C(F)(F)F.c1cc2cc(-c3ccc(-c4cc5ccc(C6=NCCN6)cc5[nH]4)o3)[nH]c2cc1C1=NCCN1", "Acinetobacter baumannii", ">", 80),
    ("O=C(O)C(F)(F)F.c1cc2cc(-c3ccc(-c4cc5ccc(C6=NCCCN6)cc5[nH]4)cc3)[nH]c2cc1C1=NCCCN1", "Acinetobacter baumannii", "=", 2.5),
    ("O=C(O)C(F)(F)F.c1cc2cc(CCc3cc4ccc(C5=NCCCN5)cc4[nH]3)[nH]c2cc1C1=NCCCN1", "Acinetobacter baumannii", "=", 80),
    ("Cl.N/N=C(/N)c1ccc2cc(-c3ccc(-c4cc5ccc(/C(N)=N\\N)cc5[nH]4)cc3)[nH]c2c1", "Acinetobacter baumannii", ">", 80),
    ("O=C(O)c1cn(C2CC2)c2cc(N3CCNCC3)c(F)cc2c1=O [CIPROFLOXACIN]", "Acinetobacter baumannii", "=", 1.25),
    ("O=C(O)C(F)(F)F.c1cc2cc(-c3ccc(-c4cc5ccc(C6=NCCN6)cc5[nH]4)s3)[nH]c2cc1C1=NCCN1", "Acinetobacter baumannii", "=", 10),
]
